# Test system: Saccharomyces cerevisiae
# METHOD_NOTES: protein stability index of tFT-peptide fusion (C-terminal peptide) (PSI (0-1 scale)); higher = more stable (slower turnover);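 further: PSI is a weighted mean of sequencing reads over stability bins, variants kept only with over 10 reads, mCherry proximal and sfGFP distal, peptide attached via GGGS linker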
# SETUP_CONDITIONS: genetic background: wild type; temperature: 30 C
I would appreciate it if you labelled entries y when protein stability index is 0.7 or higher, otherwise n.

Known results for sequences:
| SEQ | DISCRETE_LABEL |
| --- | --- |
| HWSMRVNRTEGG | n |
| PPPLPLPPPPPP | n |
| LYSRSSRLFRPL | y |
| PPPRVPPPVPPL | y |
| DRSSVLSPFHPL | y |
| ARACPLCFVMMF | n |
| WVIWFFVAACLR | n |
| PPRPVPRPHPRP | n |
| VVIPLDKGVIVQ | n |
| FAECVCVVCPLV | n |

**Query** Check if protein stability index >= 0.7 (inclusive). Item: RVWIVCYHVSSY
**Result** n

**Query** Would you say YRHYVKLGPKPF shows protein stability index at minimum 0.7?
**Result** n

**Query** Could you tell me if the measured protein stability index of WRRCSGVGVGSP reaches 0.7 or more?
**Result** n

###

# Tested on: Saccharomyces cerevisiae
# METHOD_NOTES: protein stability index of tFT-peptide fusion (C-terminal peptide) (PSI (0-1 scale)); higher = more stable (slower turnover)
# SETUP_CONDITIONS: genetic background: cdc53-1; temperature: 37 C
The threshold is inclusive: protein stability index of exactly 0.5 counts as met; values below receive not met.

# count of solved cases: 6
| SEQ | DISCRETE_LABEL |
| --- | --- |
| YVDSGLTLIHLA | met |
| LFMRGEDEMFSV | met |
| DCLSFVLFLFLC | not met |
| AFVVYSGSHGLV | met |
| GGGGGGRWGRLC | met |
| GVVVGVLLVCGW | not met |

**Query** Please check the record FFALYGHILGLF and state if its protein stability index is at or above 0.5.
**Result** met

###

# Tested on: Saccharomyces cerevisiae
# METHOD_NOTES: protein stability index of tFT-peptide fusion (C-terminal peptide) (PSI (0-1 scale)); higher = more stable (slower turnover)
# SETUP_CONDITIONS: genetic background: wild type; temperature: 30 C
// reported protein stability index per item

// known answers, use as guide
| SEQ | ASSAYED_SYSTEM | RESULT |
| --- | --- | --- |
| EALELALTWHCV | Saccharomyces cerevisiae | 0.703 |
| SSLSFHPLPLAP | Saccharomyces cerevisiae | 0.695 |
| GAVVGGRCFCRR | Saccharomyces cerevisiae | 0.715 |
| HSTGPRPKLGCQ | Saccharomyces cerevisiae | 0.827 |
| GRKCWDRSGWTV | Saccharomyces cerevisiae | 0.771 |

**Query** Query (sequence): DLSPPLPPPAHP ; field requested: protein stability index
**Result** 0.674

**Query** # lookup: protein stability index of TVFPPLPTLPCV
**Result** 0.792

**Query** Returns the measured protein stability index for the input sequence. Input: GRGGGGGRDREA
**Result** 0.703

###

# Tested on: Saccharomyces cerevisiae
# METHOD_NOTES: protein stability index of tFT-peptide fusion (C-terminal peptide) (PSI (0-1 scale)); higher = more stable (slower turnover)
# SETUP_CONDITIONS: genetic background: cdc53-1; temperature: 37 C
METRIC: protein stability index
Write the value as a bare number.

Please review the following examples before continuing.
| SEQ | MEASURED_NUMBER |
| --- | --- |
| WALVLLVPVWFD | 0.553 |
| HDLRRRVVSVMV | 0.46 |
| PVPPRVNLLRVS | 0.664 |
| LFTRSIRNLKSL | 0.727 |
| WCCVFVARFFWL | 0.504 |

**Query** Reported protein stability index for VLGRCWWIVSDL : what is it?
**Result** 0.782

**Query** Requested field: protein stability index. Item: WEISNFFGCFIG
**Result** 0.758

**Query** // query protein stability index value for entry RVWIVCYHVSSY
**Result** 0.326

**Query** Please look up its protein stability index: FSICGFYSLCFG
**Result** 0.617

**Query** Entry FAIPFVLFFRVT has what protein stability index?
**Result** 0.134

**Query** Item YQHSRSGRNKII has what recorded protein stability index?
**Result** 0.724

**Query** What does the data say about its protein stability index? Entry: QIDYSVYIFALG
**Result** 0.493

**Query** Bench note: what protein stability index did LSGDIPWSFVPV show?
**Result** 0.766

**Query** Report protein stability index for GGWGSSLGVWVG please.
**Result** 0.754

**Query** Look up protein stability index: FYSLVQAWSKAP
**Result** 0.715

**Query** Please report the recorded protein stability index for VIYNSALLLVRL .
**Result** 0.225

**Query** Look up protein stability index: SRLVIGRWSVLV
**Result** 0.617

**Query** State the recorded protein stability index for this entry: HSPPVPFPPPTS
**Result** 0.733

**Query** protein stability index lookup needed for SWRRCLSSIPVA , thanks.
**Result** 0.416

**Query** Which protein stability index value belongs to VMRMVWVLGVMC ?
**Result** 0.325

**Query** Please report the recorded protein stability index for HVRLRFQPVLFV .
**Result** 0.546

###

Some sequences, each annotated with its measured protein stability index.
# System: Saccharomyces cerevisiae
# METHOD_NOTES: protein stability index of tFT-peptide fusion (C-terminal peptide) (PSI (0-1 scale)); higher = more stable (slower turnover)
# SETUP_CONDITIONS: genetic background: doa10 deletion; temperature: 30 C

| SEQ | ASSAYED_SYSTEM | protein stability index |
| --- | --- | --- |
| LSGDIPWSFVPV | Saccharomyces cerevisiae | 0.673 |
| LFGFLCVVMCCG | Saccharomyces cerevisiae | 0.412 |

**Query** # input sequence: FASALAPLSAVA ; wanted: its protein stability index
**Result** 0.307

**Query** // protein stability index lookup, key: YSRFALRPQLLV
**Result** 0.172

**Query** Report protein stability index for KEKKKTKHNKIG please.
**Result** 0.184

**Query** Tell me the measured protein stability index of HVSVIRRGICCA , please.
**Result** 0.233

**Query** Bench note: what protein stability index did SCLRVYFSVVVS show?
**Result** 0.258

**Query** Could you share which protein stability index value was measured for SVFRFLFLALLV ?
**Result** 0.173

**Query** Any idea what its protein stability index is? The sequence is SSGSLLLPRFLT
**Result** 0.222

**Query** May I ask what protein stability index has been recorded for YFFFFLHFNFAF ?
**Result** 0.313

###

# Test system: Saccharomyces cerevisiae
# METHOD_NOTES: protein stability index of tFT-peptide fusion (C-terminal peptide) (PSI (0-1 scale)); higher = more stable (slower turnover)
# SETUP_CONDITIONS: genetic background: wild type; temperature: 30 C
METRIC: protein stability index
Could you respond with only the numeric value?

**Query** What value of protein stability index has been recorded for this entry: VWGWGAWGGCGG
**Result** 0.719

**Query** What value of protein stability index has been reported for the following sequence? PLNHIVHPHRAP
**Result** 0.687

**Query** // lookup protein stability index for RNNKLGIRKSFL
**Result** 0.69

###

# Test system: Saccharomyces cerevisiae
# METHOD_NOTES: protein stability index of tFT-peptide fusion (C-terminal peptide) (PSI (0-1 scale)); higher = more stable (slower turnover)
# SETUP_CONDITIONS: genetic background: wild type; temperature: 30 C
The following sequences are shown together with reported protein stability index values.
// return just the number, without any unit appended

Solved cases (6 shown):
| SEQ | ASSAYED_SYSTEM | MEASURED_NUMBER |
| --- | --- | --- |
| IFFFFHSPYFFS | Saccharomyces cerevisiae | 0.68 |
| PILPPVPPRASS | Saccharomyces cerevisiae | 0.703 |
| ESRNEPDQRLCQ | Saccharomyces cerevisiae | 0.686 |
| CVGSVEVGHSGI | Saccharomyces cerevisiae | 0.702 |
| VGGCRVRDVAGE | Saccharomyces cerevisiae | 0.686 |
| GGCAGGGGVVVR | Saccharomyces cerevisiae | 0.685 |

# next sequence below
**Query** Please report the recorded protein stability index for GPGGTVDLIWGS .
**Result** 0.703

###

# Tested on: Saccharomyces cerevisiae
# METHOD_NOTES: protein stability index of tFT-peptide fusion (C-terminal peptide) (PSI (0-1 scale)); higher = more stable (slower turnover)
# SETUP_CONDITIONS: genetic background: cdc34-1; temperature: 37 C
METRIC: protein stability index

| SEQ | protein stability index |
| --- | --- |
| LLILSLLVLSSR | 0.244 |
| SVFVFFGFIDFL | 0.52 |

**Query** Sample VLVSYAIVILYL — what was its protein stability index?
**Result** 0.128
